Test system: Escherichia coli
protocol.text: Antimicrobial activity against Escherichia coli 25922 assessed as absence bacterial growth measured after 18 to 24 hrs incubation in presence of 25% serum by NCCLS method
Format: functional
assay.conditions: time 18-24 hrs
Catalogue of substances with associated MIC

| substance | value.reported |
| --- | --- |
| H-GKLWLKGGKLWLKGAKLWLKG-NH2 | > 32 µM |
| H-IKLWLKGGKLWLKGGKLWLKG-NH2 | > 32 µM |
| H-GKLWLKGFKLWLKGGKLWLKG-NH2 | > 32 µM |
| H-VKLWLKGGKLWLKGGKLWLKG-NH2 | 32 µM |
| H-GKLWLKGLKLWLKGGKLWLKG-NH2 | > 32 µM |
| H-GKLWLKGMKLWLKGGKLWLKG-NH2 | > 32 µM |
| H-GKLWLKGGKLWLKGGKLWLKG-NH2 | > 32 µM |
| H-CKLWLKGGKLWLKGGKLWLKG-NH2 | > 32 µM |

Query string: Please look at this substance and report its MIC: H-GKLWLKGCKLWLKGGKLWLKG-NH2
Result string: > 32 µM

Query string: Using the record for H-GKLWLKGGKLWLKGGKLWLKA-NH2 , state its measured MIC.
Result string: > 32 µM

Query string: Fill in MIC for record H-AKLWLKGGKLWLKGGKLWLKG-NH2
Result string: > 32 µM

Query string: Give reported MIC value for H-GKLWLKGGKLWLKAGKLWLKG-NH2
Result string: 32 µM

Query string: Give reported MIC value for H-GKLWLKGAKLWLKGGKLWLKG-NH2
Result string: > 32 µM

Query string: Report MIC for H-GKLWLKAGKLWLKGGKLWLKG-NH2
Result string: 32 µM
